Target: HLA-A*33:01
Assay: IEDB peptide-MHC binding, purified MHC/competitive/radioactivity; filed as Kd, often an IC50 or EC50 that approximates it; bounds were set here for any values at or beyond the usual limits of such assays
Details: source organism: Lassa virus GA391
pKd: −log10 of the molar value.
measured.quantity: pKd

{"residue.string": "ENAVWDQFK", "measured.quantity": "pKd", "recorded.number": 5.99}

* * *

Target: HLA-A*23:01
Assay: IEDB peptide-MHC binding, purified MHC/competitive/radioactivity; filed as Kd, often an IC50 or EC50 that approximates it; bounds were set here for any values at or beyond the usual limits of such assays
Settings: source organism: Triticum aestivum
pKd: −log10 of the molar value.

{"residue.string": "QYPLGQGSF", "system.tested": "HLA-A*23:01", "pKd": 5.09}
